target: T1, CD3 on primary human pan T cells (human, UniProt P07766 23-207); experiment: flow cytometry, pan T-cells
T1 construct: on cells it stands in the TCR/CD3 complex; also called Pan T-cells (CD3-positive); endogenous CD3
T1 sequence (P07766 23-207 limits assumed): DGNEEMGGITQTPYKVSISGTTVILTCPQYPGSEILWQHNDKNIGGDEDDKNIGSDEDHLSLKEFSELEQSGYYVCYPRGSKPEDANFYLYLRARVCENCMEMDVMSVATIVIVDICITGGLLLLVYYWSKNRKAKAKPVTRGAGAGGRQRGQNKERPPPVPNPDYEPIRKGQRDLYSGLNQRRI

>  <binder>
CD3B2063 (scFv) scFv: QVQLVQSGAEVKKPGSSVKVSCKASGYTFTRSTMHWVKQAPGQGLEWIGYINPSSAYTNYAQKFQGRVTLTADKSTSTAYMELSSLRSEDTAVYYCASPQVHYDYNGFPYWGQGTLVTVSSGGSEGKSSGSGSESKSTGGSEIVLTQSPATLSASPGERVTLSCSASSSVSYMNWYQQKPGTAPRRLIYDSSKLASGVPARFSGSGSGRDYTLTISSLEPEDFAVYYCQQWSRNPPTFGGGTKVEIK

>  <% Binding retained on T-cells, 60° C.>
0.996 fraction

$$$$
>  <binder>
CD3B2034 (scFv) scFv: QVQLVQSGAEVKKPGSSVKVSCKASGYTFTRSTMHWVKQAPGQGLEWMGYINPSSAYTNYNQKFQGRVTLTADKSTSTAYMELSSLRSEDTAVYYCASPQVHYDYNGFPYWGQGTLVTVSSGGSEGKSSGSGSESKSTGGSEIVLTQSPATLSASPGERVTLSCSASSSVSYMNWYQQKPGQSPRRWIYDSSKLASGVPARFSGSGSGRDYTLTISSLEPEDFAVYYCQQWSRNPPTFGGGTKVEIK

>  <% Binding retained on T-cells, 60° C.>
0.784 fraction

$$$$
>  <binder>
CD3B2081 (scFv) scFv: QVQLVQSGAEVKKPGSSVKVSCKASGYTFTRSTMHWVRQAPGQGLEWIGYINPSSAYTNYAQKFQGRVTLTADKSTSTAYMELSSLRSEDTAVYYCASPQVHYDYNGFPYWGQGTLVTVSSGGSEGKSSGSGSESKSTGGSEIVLTQSPATLSASPGERVTLSCSASSSVSYMNWYQQKPGQAPRRWIYDSSKLASGVPARFSGSGSGRDYTLTISSLEPEDFAVYYCQQWSRNPPTFGGGTKVEIK

>  <% Binding retained on T-cells, 60° C.>
1.2 fraction

$$$$
